The measurements presented in this section are drawn from paper PMC6208348.

- measured-target: wild-type Src SH2 domain (UniProt P12931 151-248)
- assay-summary: fluorescence polarisation
- condition-details: both partners purified
pKd: −log10 of the molar value. Non-standard residues stand in square brackets, D forms with d. No end group written: not given here. pY = N[C@@H](Cc1ccc(OP(=O)(O)O)cc1)C(=O)O
reported-endpoint: pKd

Which value of pKd has been reported for GG[pY]GG (source: synthetic peptide) [mini peptide GGpYGG] in the records?
< 4.30
